Test system: Bacillus subtilis
Experiment: Antimicrobial activity against Bacillus subtilis at 100 ug/ml after 24 to 48 hrs by disk diffusion method
Assay type: functional
Settings: read-out: DIZ
# zone of inhibition at 100 µg/mL annotations
Quick reminder: number only, in mm, skip the unit.

Prompt line: # zone of inhibition at 100 µg/mL lookup, item O=C(N[C@H](CO)[C@H](O)c1ccc([N+](=O)[O-])cc1)C(Cl)Cl
Response line: 32

Prompt line: # zone of inhibition at 100 µg/mL lookup, item C#CCN1C(=O)[C@]2(C(C#N)=C(N)OC(c3c[nH]c4ccccc34)=C2C#N)c2ccccc21
Response line: 20

Prompt line: # zone of inhibition at 100 µg/mL lookup, item CCOC(=O)C1=C(N)OC(c2c[nH]c3ccccc23)=C(C#N)[C@@]12C(=O)N(C)c1ccccc12
Response line: 13

Prompt line: # zone of inhibition at 100 µg/mL lookup, item CCOC(=O)C1=C(N)OC(c2c[nH]c3ccccc23)=C(C#N)[C@@]12C(=O)N(Cc1ccccc1)c1ccccc12
Response line: 14

Prompt line: # zone of inhibition at 100 µg/mL lookup, item CCOC(=O)C1=C(N)OC(c2cn(C)c3ccccc23)=C(C#N)[C@@]12C(=O)c1cccc3cccc2c13
Response line: 18

Further cases:
Prompt line: # zone of inhibition at 100 µg/mL lookup, item CCOC(=O)CN1C(=O)[C@]2(C(C#N)=C(N)OC(c3c[nH]c4ccccc34)=C2C#N)c2ccccc21
Response line: 26

Prompt line: # zone of inhibition at 100 µg/mL lookup, item CCCCN1C(=O)[C@@]2(C(C#N)=C(c3c[nH]c4ccccc34)OC(N)=C2C(=O)OCC)c2ccccc21
Response line: 17

Prompt line: # zone of inhibition at 100 µg/mL lookup, item CCOC(=O)C1=C(N)OC(c2c[nH]c3ccccc23)=C(C#N)[C@@]12C(=O)Nc1ccccc12
Response line: 19

Prompt line: # zone of inhibition at 100 µg/mL lookup, item N#CC1=C(N)OC(c2c[nH]c3ccccc23)=C(C#N)[C@@]12C(=O)c1cccc3cccc2c13
Response line: 40

Prompt line: # zone of inhibition at 100 µg/mL lookup, item N#CC1=C(N)OC(c2c[nH]c3ccccc23)=C(C#N)[C@@]12C(=O)Nc1ccccc12
Response line: 28

Prompt line: # zone of inhibition at 100 µg/mL lookup, item Cc1[nH]c2ccccc2c1C1=C(C#N)[C@@]2(C(=O)c3cccc4cccc2c34)C(C#N)=C(N)O1
Response line: 19

Prompt line: # zone of inhibition at 100 µg/mL lookup, item Cn1cc(C2=C(C#N)[C@@]3(C(=O)c4cccc5cccc3c45)C(C#N)=C(N)O2)c2ccccc21
Response line: 36

Prompt line: # zone of inhibition at 100 µg/mL lookup, item CCOC(=O)CN1C(=O)[C@@]2(C(C#N)=C(c3c[nH]c4ccccc34)OC(N)=C2C(=O)OCC)c2ccccc21
Response line: 12

Prompt line: # zone of inhibition at 100 µg/mL lookup, item CCOC(=O)C1=C(N)OC(c2c(C)[nH]c3ccccc23)=C(C#N)[C@@]12C(=O)c1cccc3cccc2c13
Response line: 18

Prompt line: # zone of inhibition at 100 µg/mL lookup, item N#CC1=C(N)OC(c2c[nH]c3ccccc23)=C(C#N)[C@@]12C(=O)N(Cc1ccccc1)c1ccccc12
Response line: 30

Prompt line: # zone of inhibition at 100 µg/mL lookup, item C#CCN1C(=O)[C@@]2(C(C#N)=C(c3c[nH]c4ccccc34)OC(N)=C2C(=O)OCC)c2ccccc21
Response line: 17

###

System: Bacillus subtilis
Experiment: Antimicrobial activity against Bacillus subtilis at 100 ug/ml after 24 to 48 hrs by disk diffusion method
Format: functional
Conditions: read-out: DIZ
observable: zone of inhibition at 100 µg/mL (mm)
Quick reminder: number only, in mm, skip the unit.

Prompt line: # zone of inhibition at 100 µg/mL lookup, item CN1C(=O)[C@]2(C(C#N)=C(N)OC(c3c[nH]c4ccccc34)=C2C#N)c2ccccc21
Response line: 26

Prompt line: # zone of inhibition at 100 µg/mL lookup, item CCOC(=O)C1=C(N)OC(c2c[nH]c3ccccc23)=C(C#N)[C@@]12C(=O)c1cccc3cccc2c13
Response line: 17

// next entry
Prompt line: # zone of inhibition at 100 µg/mL lookup, item C=CCN1C(=O)[C@@]2(C(C#N)=C(c3c[nH]c4ccccc34)OC(N)=C2C(=O)OCC)c2ccccc21
Response line: 14
